Data origin: ChEMBL document CHEMBL1275453

Recorded MIC50 by entry
Tested on: Phocaeicola vulgatus
assayComment: Antibacterial activity against Bacteroides vulgatus isolate by agar dilution method
Format: functional

{"lineNotation": "CN(C)c1cc(NC(=O)CNC(C)(C)C)c(O)c2c1C[C@H]1C[C@H]3[C@H](N(C)C)C(O)=C(C(N)=O)C(=O)[C@@]3(O)C(O)=C1C2=O", "studyTarget": "Phocaeicola vulgatus", "unitString": "µg/mL", "MIC50": 0.5}
{"lineNotation": "CCC[C@@H]1C[C@@H](C(=O)N[C@@H]([C@H]2O[C@H](SC)[C@H](O)[C@@H](O)[C@H]2O)[C@H](C)Cl)N(C)C1", "studyTarget": "Phocaeicola vulgatus", "unitString": "µg/mL", "MIC50": 4}
{"lineNotation": "COc1c(N2C[C@@H]3CCCN[C@@H]3C2)c(F)cc2c(=O)c(C(=O)O)cn(C3CC3)c12", "studyTarget": "Phocaeicola vulgatus", "unitString": "µg/mL", "MIC50": 2}

###

Test system: Bacteroides uniformis
assayComment: Antibacterial activity against Bacteroides uniformis assessed as percent resistant isolates by agar dilution method
Format: functional

{"compound": "Cc1ncc([N+](=O)[O-])n1CCO [METRONIDAZOLE]", "Activity [%]": 0}
{"compound": "COc1c(N2C[C@@H]3CCCN[C@@H]3C2)c(F)cc2c(=O)c(C(=O)O)cn(C3CC3)c12 [MOXIFLOXACIN]", "Activity [%]": 24.5}
{"compound": "CCC[C@@H]1C[C@@H](C(=O)N[C@@H]([C@H]2O[C@H](SC)[C@H](O)[C@@H](O)[C@H]2O)[C@H](C)Cl)N(C)C1 [CLINDAMYCIN]", "Activity [%]": 40.6}
{"compound": "C[C@@H](O)[C@H]1C(=O)N2C(C(=O)O)=C(SCCNC=N)C[C@H]12 [IMIPENEM ANHYDROUS]", "Activity [%]": 0}

###

MIC50 values by entry
Test system: Parabacteroides merdae
assayComment: Antibacterial activity against Bacteroides merdae isolate by agar dilution method
Assay type: functional

{"compound": "COc1c(N2C[C@@H]3CCCN[C@@H]3C2)c(F)cc2c(=O)c(C(=O)O)cn(C3CC3)c12", "MIC50 / µg/mL": 2}
{"compound": "O=C(N[C@H](CO)[C@H](O)c1ccc([N+](=O)[O-])cc1)C(Cl)Cl", "MIC50 / µg/mL": 4}
{"compound": "CN(C)c1cc(NC(=O)CNC(C)(C)C)c(O)c2c1C[C@H]1C[C@H]3[C@H](N(C)C)C(O)=C(C(N)=O)C(=O)[C@@]3(O)C(O)=C1C2=O", "MIC50 / µg/mL": 1}
{"compound": "Cc1ncc([N+](=O)[O-])n1CCO", "MIC50 / µg/mL": 0.5}
{"compound": "CCC[C@@H]1C[C@@H](C(=O)N[C@@H]([C@H]2O[C@H](SC)[C@H](O)[C@@H](O)[C@H]2O)[C@H](C)Cl)N(C)C1", "MIC50 / µg/mL": 4}
{"compound": "C[C@@H](O)[C@H]1C(=O)N2C(C(=O)O)=C(SCCNC=N)C[C@H]12 [IMIPENEM ANHYDROUS]", "MIC50 / µg/mL": 0.25}
{"compound": "CO[C@@]1(NC(=O)Cc2cccs2)C(=O)N2C(C(=O)O)=C(COC(N)=O)CS[C@@H]21", "MIC50 / µg/mL": 16}
